- system.tested: Human KRAS WT (Homo sapiens, UniProt P01116)
- Sequence (P01116 1-188 isoform P01116-2): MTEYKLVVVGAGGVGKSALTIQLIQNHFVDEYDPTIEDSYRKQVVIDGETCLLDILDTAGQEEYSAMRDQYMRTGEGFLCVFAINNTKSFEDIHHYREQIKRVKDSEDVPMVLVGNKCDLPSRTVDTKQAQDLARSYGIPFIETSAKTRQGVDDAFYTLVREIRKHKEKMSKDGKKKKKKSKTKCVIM

{"mol.smiles": "C#Cc1c(F)ccc2cc(O)cc(-c3ncc4c(N5CCC[C@@](C)(O)C5)nc(OCC5(CN6CCN(CC7CCC8(CC7)CCN(C(=O)c7ccc(Cl)c(N9CCC(=O)NC9=O)c7)CC8)CC6)CC5)nc4c3F)c12", "system.tested": "Human KRAS WT (Homo sapiens, UniProt P01116)", "IC50": "1 to 10 µM"}

====

- system.tested: KRAS G12C protein in NCI-H358 cells (Homo sapiens, UniProt P01116, G12C)
- Construct: endogenous in cells; host or cells: NCI-H358
- Sequence (P01116 1-188 isoform P01116-2 G12C): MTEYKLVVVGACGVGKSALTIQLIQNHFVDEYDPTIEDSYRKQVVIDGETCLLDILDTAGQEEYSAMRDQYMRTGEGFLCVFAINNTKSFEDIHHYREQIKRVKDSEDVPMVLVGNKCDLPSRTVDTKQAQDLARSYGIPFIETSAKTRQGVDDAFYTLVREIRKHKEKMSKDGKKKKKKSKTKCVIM
- method.notes: KRAS degradation assay (Western Blot) in NCI-H358 cells
- Assay type: cell-based
- test.settings: 24 h

{"mol.smiles": "C#Cc1c(F)ccc2cc(O)cc(-c3ncc4c(N5CCC[C@@](C)(O)C5)nc(OC[C@H](C)CN5CCN(CC6CCC7(CC6)CCN(C(=O)c6ccc(Cl)c(N8CCC(=O)NC8=O)c6)CC7)CC5)nc4c3F)c12", "unit.tag": "%", "Dmax": 100}
{"mol.smiles": "C#Cc1c(F)ccc2cc(O)cc(-c3ncc4c(N5CCC[C@@](C)(O)C5)nc(OC[C@H](C)CN5CCN(CC6CCC7(CC6)CCN(C(=O)c6ccc(OC)c(N8CCC(=O)NC8=O)c6)CC7)CC5)nc4c3F)c12", "unit.tag": "%", "Dmax": 86.7}

The measurements presented in this section are drawn from patent US20260167622A1.
